The next entries give measured pIC50 for edema factor (EF) from Bacillus anthracis (Bacillus anthracis, UniProt P40136).
pIC50: −log10 of the molar value.
Measured quantity: pIC50

INSERT INTO measurements (compound, measured_quantity, readout_number) VALUES
  ('CNS(=O)(=O)c1cccc(-c2nc(N)sc2CCOCP(=O)(O)OP(=O)(O)OP(=O)(O)O)c1 [10g]', 'pIC50', 5.24),
  ('CCCCOc1cccc(-c2nc(N)sc2CCOCP(=O)(O)OP(=O)(O)OP(=O)(O)O)c1 [10b]', 'pIC50', 6.76),
  ('Nc1nc(-c2ccccc2F)c(CCOCP(=O)(O)OP(=O)(O)OP(=O)(O)O)s1 [10e]', 'pIC50', 5.10),
  ('Nc1nc(-c2cccc(OCc3ccccc3)c2)c(CCOCP(=O)(O)OP(=O)(O)OP(=O)(O)O)s1 [10c]', 'pIC50', 7.17),
  ('Nc1nc(-c2cccc(F)c2)c(CCOCP(=O)(O)OP(=O)(O)OP(=O)(O)O)s1 [10f]', 'pIC50', 6.92),
  ('CNC(=O)c1ccc(-c2nc(N)sc2CCOCP(=O)(O)OP(=O)(O)OP(=O)(O)O)cc1 [10h]', 'pIC50', 6.79),
  ('CC(C)Oc1ccc(-c2nc(N)sc2CCOCP(=O)(O)OP(=O)(O)OP(=O)(O)O)cc1 [10d]', 'pIC50', 6.58),
  ('Nc1nc(-c2ccccc2)c(CCOCP(=O)(O)OP(=O)(O)OP(=O)(O)O)s1 [10a]', 'pIC50', 6.72);

---

# Assay target: UniProt O95622
# Sequence (O95622 whole entry): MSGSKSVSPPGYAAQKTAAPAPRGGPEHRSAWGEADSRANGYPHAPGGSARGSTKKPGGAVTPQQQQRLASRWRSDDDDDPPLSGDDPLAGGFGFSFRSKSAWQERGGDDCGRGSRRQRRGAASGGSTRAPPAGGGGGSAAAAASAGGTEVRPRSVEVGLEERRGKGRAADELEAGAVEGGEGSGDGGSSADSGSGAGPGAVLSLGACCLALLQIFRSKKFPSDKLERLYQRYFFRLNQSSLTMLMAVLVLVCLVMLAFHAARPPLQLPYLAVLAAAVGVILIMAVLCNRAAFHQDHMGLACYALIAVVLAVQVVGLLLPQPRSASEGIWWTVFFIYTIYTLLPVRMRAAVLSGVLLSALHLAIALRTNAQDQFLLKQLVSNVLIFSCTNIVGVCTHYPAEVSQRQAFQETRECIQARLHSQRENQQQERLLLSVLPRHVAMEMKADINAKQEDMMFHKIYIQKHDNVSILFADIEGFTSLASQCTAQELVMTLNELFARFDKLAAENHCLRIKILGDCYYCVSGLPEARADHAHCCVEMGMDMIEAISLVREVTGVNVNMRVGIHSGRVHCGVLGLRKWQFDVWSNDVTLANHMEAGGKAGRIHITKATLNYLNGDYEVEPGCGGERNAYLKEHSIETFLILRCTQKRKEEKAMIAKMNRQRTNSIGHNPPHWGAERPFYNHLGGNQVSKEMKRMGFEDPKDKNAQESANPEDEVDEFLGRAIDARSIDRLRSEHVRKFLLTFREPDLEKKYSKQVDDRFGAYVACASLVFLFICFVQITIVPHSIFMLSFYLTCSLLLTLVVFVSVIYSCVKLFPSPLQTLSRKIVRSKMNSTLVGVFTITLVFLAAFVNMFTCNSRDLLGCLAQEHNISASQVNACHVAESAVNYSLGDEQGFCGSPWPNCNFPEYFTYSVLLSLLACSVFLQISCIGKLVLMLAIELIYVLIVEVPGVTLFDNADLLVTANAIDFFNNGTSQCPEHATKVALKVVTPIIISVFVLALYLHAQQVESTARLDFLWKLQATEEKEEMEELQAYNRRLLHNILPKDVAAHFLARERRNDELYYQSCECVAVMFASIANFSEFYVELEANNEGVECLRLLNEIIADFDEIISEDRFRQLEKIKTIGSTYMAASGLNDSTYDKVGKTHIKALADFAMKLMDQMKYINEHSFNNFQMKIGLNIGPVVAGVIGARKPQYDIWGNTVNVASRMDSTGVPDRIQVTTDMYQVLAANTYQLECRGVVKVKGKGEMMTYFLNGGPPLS
# Protocol notes: mAC assay, forskolin-stimulated cAMP in HEK293 cells expressing recombinant AC5
# Type: cell-based
# Settings: fixed prodrug concentration 30 μM, remaining activity, mean ± SD
Measured quantity: % FSK (5 μM) Stimulated Activity AC5 (%)

INSERT INTO assay_data (compound, assay_target, readout_number) VALUES
  ('CC(C)OC(=O)[C@H](Cc1ccccc1)NP(=O)(COCCc1sc(N)nc1-c1ccccc1F)N[C@@H](Cc1ccccc1)C(=O)OC(C)C [9e]', 'UniProt O95622', 81),
  ('CNS(=O)(=O)c1cccc(-c2nc(N)sc2CCOCP(=O)(N[C@@H](Cc2ccccc2)C(=O)OC(C)C)N[C@@H](Cc2ccccc2)C(=O)OC(C)C)c1 [9g]', 'UniProt O95622', 81),
  ('CCCCOc1cccc(-c2nc(N)sc2CCOCP(=O)(N[C@@H](Cc2ccccc2)C(=O)OC(C)C)N[C@@H](Cc2ccccc2)C(=O)OC(C)C)c1 [9b]', 'UniProt O95622', 81),
  ('CC(C)OC(=O)[C@H](Cc1ccccc1)NP(=O)(COCCc1sc(N)nc1-c1ccc(OC(C)C)cc1)N[C@@H](Cc1ccccc1)C(=O)OC(C)C [9d]', 'UniProt O95622', 87),
  ('CC(C)OC(=O)[C@H](Cc1ccccc1)NP(=O)(COCCc1sc(N)nc1-c1ccc(C(=O)NCc2ccccc2)cc1)N[C@@H](Cc1ccccc1)C(=O)OC(C)C [9i]', 'UniProt O95622', 81),
  ('CNC(=O)c1ccc(-c2nc(N)sc2CCOCP(=O)(N[C@@H](Cc2ccccc2)C(=O)OC(C)C)N[C@@H](Cc2ccccc2)C(=O)OC(C)C)cc1 [9h]', 'UniProt O95622', 84);

---

# Assay target: Human AC2 (Homo sapiens, UniProt Q08462)
# Sequence (Q08462 whole entry): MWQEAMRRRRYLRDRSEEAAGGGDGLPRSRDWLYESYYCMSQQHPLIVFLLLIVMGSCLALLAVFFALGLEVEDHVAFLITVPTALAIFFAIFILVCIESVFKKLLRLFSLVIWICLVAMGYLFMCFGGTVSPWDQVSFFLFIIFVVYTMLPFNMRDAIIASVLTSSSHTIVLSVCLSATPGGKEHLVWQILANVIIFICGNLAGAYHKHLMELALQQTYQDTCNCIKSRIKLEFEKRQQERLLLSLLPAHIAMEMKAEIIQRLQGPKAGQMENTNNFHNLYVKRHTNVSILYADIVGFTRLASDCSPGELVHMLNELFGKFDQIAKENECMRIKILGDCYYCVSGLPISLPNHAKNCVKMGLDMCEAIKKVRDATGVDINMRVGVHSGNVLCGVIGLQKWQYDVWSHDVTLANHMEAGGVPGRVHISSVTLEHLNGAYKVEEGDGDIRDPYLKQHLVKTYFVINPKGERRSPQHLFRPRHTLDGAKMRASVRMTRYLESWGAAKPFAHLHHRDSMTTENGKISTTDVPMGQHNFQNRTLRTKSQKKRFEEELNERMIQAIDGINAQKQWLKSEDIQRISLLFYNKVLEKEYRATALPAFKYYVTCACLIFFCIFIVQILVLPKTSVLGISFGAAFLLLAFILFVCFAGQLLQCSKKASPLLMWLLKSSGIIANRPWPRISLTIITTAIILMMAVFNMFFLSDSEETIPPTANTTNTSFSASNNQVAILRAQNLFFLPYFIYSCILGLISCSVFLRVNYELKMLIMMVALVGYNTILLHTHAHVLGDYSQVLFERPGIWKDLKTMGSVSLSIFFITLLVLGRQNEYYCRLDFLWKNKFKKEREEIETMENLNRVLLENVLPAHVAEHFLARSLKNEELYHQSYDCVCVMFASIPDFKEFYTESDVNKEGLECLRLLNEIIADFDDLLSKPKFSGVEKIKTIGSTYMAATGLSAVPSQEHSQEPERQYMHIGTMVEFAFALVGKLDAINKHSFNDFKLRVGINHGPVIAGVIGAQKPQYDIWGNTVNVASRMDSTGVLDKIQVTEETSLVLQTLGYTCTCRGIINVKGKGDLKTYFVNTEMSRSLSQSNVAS
# Protocol notes: mAC assay, forskolin-stimulated cAMP in HEK293 cells expressing recombinant AC2
# Type: cell-based
# Settings: fixed prodrug concentration 30 μM, remaining activity, mean ± SD
Measured quantity: % FSK (5 μM) Stimulated Activity AC2 (%)

INSERT INTO measurements (smiles_text, display_unit, readout_number) VALUES
  ('CNS(=O)(=O)c1cccc(-c2nc(N)sc2CCOCP(=O)(N[C@@H](Cc2ccccc2)C(=O)OC(C)C)N[C@@H](Cc2ccccc2)C(=O)OC(C)C)c1', '%', 115),
  ('CCCCOc1cccc(-c2nc(N)sc2CCOCP(=O)(N[C@@H](Cc2ccccc2)C(=O)OC(C)C)N[C@@H](Cc2ccccc2)C(=O)OC(C)C)c1', '%', 137),
  ('CNC(=O)c1ccc(-c2nc(N)sc2CCOCP(=O)(N[C@@H](Cc2ccccc2)C(=O)OC(C)C)N[C@@H](Cc2ccccc2)C(=O)OC(C)C)cc1', '%', 112),
  ('CC(C)OC(=O)[C@H](Cc1ccccc1)NP(=O)(COCCc1sc(N)nc1-c1cccc(F)c1)N[C@@H](Cc1ccccc1)C(=O)OC(C)C', '%', 139),
  ('CC(C)OC(=O)[C@H](Cc1ccccc1)NP(=O)(COCCc1sc(N)nc1-c1ccc(C(=O)NCc2ccccc2)cc1)N[C@@H](Cc1ccccc1)C(=O)OC(C)C', '%', 115),
  ('CC(C)OC(=O)[C@H](Cc1ccccc1)NP(=O)(COCCc1sc(N)nc1-c1cccc(OCc2ccccc2)c1)N[C@@H](Cc1ccccc1)C(=O)OC(C)C', '%', 126),
  ('CC(C)OC(=O)[C@H](Cc1ccccc1)NP(=O)(COCCc1sc(N)nc1-c1ccccc1F)N[C@@H](Cc1ccccc1)C(=O)OC(C)C', '%', 98);

---

# pIC50 annotations
# Assay target: B. pertussis adenylate cyclase toxin (ACT) (Bordetella pertussis)
# Settings: read-out: ACT IC50; J774A.1 cells; 50% decrease in ACT-induced cAMP accumulation; mean ± SD
pIC50: −log10 of the molar value.
Measured quantity: pIC50

INSERT INTO measurements (smiles_text, comparison_operator, readout_number) VALUES
  ('CNS(=O)(=O)c1cccc(-c2nc(N)sc2CCOCP(=O)(N[C@@H](Cc2ccccc2)C(=O)OC(C)C)N[C@@H](Cc2ccccc2)C(=O)OC(C)C)c1', '<', 5.00),
  ('CNC(=O)c1ccc(-c2nc(N)sc2CCOCP(=O)(N[C@@H](Cc2ccccc2)C(=O)OC(C)C)N[C@@H](Cc2ccccc2)C(=O)OC(C)C)cc1', '<', 5.00),
  ('CC(C)OC(=O)[C@H](Cc1ccccc1)NP(=O)(COCCc1sc(N)nc1-c1ccccc1F)N[C@@H](Cc1ccccc1)C(=O)OC(C)C', '<', 5.00),
  ('CC(C)OC(=O)[C@H](Cc1ccccc1)NP(=O)(COCCc1sc(N)nc1-c1cccc(F)c1)N[C@@H](Cc1ccccc1)C(=O)OC(C)C', '=', 5.28),
  ('CC(C)OC(=O)[C@H](Cc1ccccc1)NP(=O)(COCCc1sc(N)nc1-c1ccc(OC(C)C)cc1)N[C@@H](Cc1ccccc1)C(=O)OC(C)C', '=', 6.31);

---

# Assay target: Human AC1 (Homo sapiens, UniProt Q08828)
# Sequence (Q08828 whole entry): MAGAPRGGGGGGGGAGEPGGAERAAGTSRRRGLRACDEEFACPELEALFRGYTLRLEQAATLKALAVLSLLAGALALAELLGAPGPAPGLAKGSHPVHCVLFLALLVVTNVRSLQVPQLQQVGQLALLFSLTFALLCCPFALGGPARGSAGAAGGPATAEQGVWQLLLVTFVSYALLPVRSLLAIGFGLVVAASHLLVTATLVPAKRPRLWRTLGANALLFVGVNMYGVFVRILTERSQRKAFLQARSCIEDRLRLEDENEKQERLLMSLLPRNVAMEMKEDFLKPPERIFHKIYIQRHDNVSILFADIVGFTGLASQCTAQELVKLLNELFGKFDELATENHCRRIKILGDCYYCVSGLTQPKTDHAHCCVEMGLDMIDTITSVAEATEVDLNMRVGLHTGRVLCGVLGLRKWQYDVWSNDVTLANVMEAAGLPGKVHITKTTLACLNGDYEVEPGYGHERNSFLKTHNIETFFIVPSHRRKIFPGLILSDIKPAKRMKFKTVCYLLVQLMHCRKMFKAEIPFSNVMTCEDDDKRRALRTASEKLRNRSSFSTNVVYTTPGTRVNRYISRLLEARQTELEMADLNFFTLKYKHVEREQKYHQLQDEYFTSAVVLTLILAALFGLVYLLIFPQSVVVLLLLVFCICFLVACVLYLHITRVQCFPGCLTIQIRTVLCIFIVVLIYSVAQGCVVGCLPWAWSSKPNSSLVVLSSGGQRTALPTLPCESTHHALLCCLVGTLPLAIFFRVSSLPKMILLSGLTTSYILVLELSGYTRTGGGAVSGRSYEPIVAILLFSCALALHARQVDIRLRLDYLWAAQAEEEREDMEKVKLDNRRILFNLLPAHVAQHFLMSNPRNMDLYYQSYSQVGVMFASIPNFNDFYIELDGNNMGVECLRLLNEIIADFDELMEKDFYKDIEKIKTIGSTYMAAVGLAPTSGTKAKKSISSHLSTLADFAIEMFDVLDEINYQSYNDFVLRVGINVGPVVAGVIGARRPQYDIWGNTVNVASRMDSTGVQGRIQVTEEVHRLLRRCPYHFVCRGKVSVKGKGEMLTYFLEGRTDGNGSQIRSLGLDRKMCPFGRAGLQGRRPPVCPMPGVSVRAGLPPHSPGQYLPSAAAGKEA
# Protocol notes: mAC assay, forskolin-stimulated cAMP in HEK293 cells expressing recombinant AC1
# Assay type: cell-based
# Settings: fixed prodrug concentration 30 μM, remaining activity, mean ± SD
Threshold 90%. % FSK (5 μM) Stimulated Activity AC1 below it: label 1. % FSK (5 μM) Stimulated Activity AC1 at it or above: label 0.

INSERT INTO assay_data (molecule, qualitative_label) VALUES
  ('CNS(=O)(=O)c1cccc(-c2nc(N)sc2CCOCP(=O)(N[C@@H](Cc2ccccc2)C(=O)OC(C)C)N[C@@H](Cc2ccccc2)C(=O)OC(C)C)c1 [9g]', 'label 1'),
  ('CNC(=O)c1ccc(-c2nc(N)sc2CCOCP(=O)(N[C@@H](Cc2ccccc2)C(=O)OC(C)C)N[C@@H](Cc2ccccc2)C(=O)OC(C)C)cc1 [9h]', 'label 0'),
  ('CC(C)OC(=O)[C@H](Cc1ccccc1)NP(=O)(COCCc1sc(N)nc1-c1ccc(OC(C)C)cc1)N[C@@H](Cc1ccccc1)C(=O)OC(C)C [9d]', 'label 1'),
  ('CC(C)OC(=O)[C@H](Cc1ccccc1)NP(=O)(COCCc1sc(N)nc1-c1ccccc1F)N[C@@H](Cc1ccccc1)C(=O)OC(C)C [9e]', 'label 1'),
  ('CC(C)OC(=O)[C@H](Cc1ccccc1)NP(=O)(COCCc1sc(N)nc1-c1cccc(F)c1)N[C@@H](Cc1ccccc1)C(=O)OC(C)C [9f]', 'label 1'),
  ('CC(C)OC(=O)[C@H](Cc1ccccc1)NP(=O)(COCCc1sc(N)nc1-c1ccc(C(=O)NCc2ccccc2)cc1)N[C@@H](Cc1ccccc1)C(=O)OC(C)C [9i]', 'label 0');

---

# Tested on: J774A.1 cells
# Protocol notes: Effect on the viability of J774A.1 cells
# Type: cell-based, murine
# Settings: fixed prodrug concentration 10 μM, 5 h, versus untreated control
Measured quantity: Viability (%)

INSERT INTO assay_data (smiles_text, readout_number) VALUES
  ('CC(C)OC(=O)[C@H](Cc1ccccc1)NP(=O)(COCCc1sc(N)nc1-c1ccc(C(=O)NCc2ccccc2)cc1)N[C@@H](Cc1ccccc1)C(=O)OC(C)C', 108),
  ('CC(C)OC(=O)[C@H](Cc1ccccc1)NP(=O)(COCCc1sc(N)nc1-c1ccc(OC(C)C)cc1)N[C@@H](Cc1ccccc1)C(=O)OC(C)C', 103),
  ('CC(C)OC(=O)[C@H](Cc1ccccc1)NP(=O)(COCCc1sc(N)nc1-c1ccccc1F)N[C@@H](Cc1ccccc1)C(=O)OC(C)C', 101),
  ('CNC(=O)c1ccc(-c2nc(N)sc2CCOCP(=O)(N[C@@H](Cc2ccccc2)C(=O)OC(C)C)N[C@@H](Cc2ccccc2)C(=O)OC(C)C)cc1', 101),
  ('CC(C)OC(=O)[C@H](Cc1ccccc1)NP(=O)(COCCc1sc(N)nc1-c1ccccc1)N[C@@H](Cc1ccccc1)C(=O)OC(C)C', 112),
  ('CNS(=O)(=O)c1cccc(-c2nc(N)sc2CCOCP(=O)(N[C@@H](Cc2ccccc2)C(=O)OC(C)C)N[C@@H](Cc2ccccc2)C(=O)OC(C)C)c1', 101);

These data points were gathered from paper PMC8741643.
